Target: T1, Fis1ΔN (human Fis1 residues 9-125, lacking the N-terminal arm) (human, UniProt Q9Y3D6 9-125)
T1 sequence: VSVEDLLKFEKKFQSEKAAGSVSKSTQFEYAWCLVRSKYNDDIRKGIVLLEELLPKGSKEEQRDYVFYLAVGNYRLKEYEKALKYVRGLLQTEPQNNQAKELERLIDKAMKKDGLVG
Experiment: NMR titration
Readout: Kd

I have this binder here, Ac-MEAVLNEL-NH2 [Fis1 N-terminal arm peptide] , and I need its recorded Kd.
≥ 5 mM
